# Assay text: Metabolite profiling in plasma, bile, urine, feces
# Type: in vivo, SD rats
# Particulars: male rats, [14C] 3 mg/100 µCi/kg i.v.
Recorded share of plasma AUC0-96h values for a group of molecules are listed next.
Quantity name: share of plasma AUC0-96h

> print(dat)
                                smiles.text             quantity.name            val
1  CN(Cc1nc2c(N3CCOCC3)nc(-c3ccc(N)cc3)nc2n1C)c1ncc(C(=O)O)cn1  share of plasma AUC0-96h  4.85% to 6.67
2  CC(=O)Nc1ccc(-c2nc(N3CCOCC3)c3nc(CN(C)c4ncc(C(=O)NO)cn4)n(C)c3n2)cc1  share of plasma AUC0-96h  4.85% to 6.67
3  CONC(=O)c1cnc(N(C)Cc2nc3c(N4CCOCC4)nc(-c4ccc(NC(C)=O)cc4)nc3n2C)nc1  share of plasma AUC0-96h  4.85% to 6.67
